# Tested on: Panc1 cells
# measurement_description: MTT assay, compounds related to LD030 on Panc1 cells
# Assay type: cell-based, human
# test_parameters: Homo sapiens, PANC-1; 100 μM, 48 hours; read-out: Effects on Panc1 Cells (inhibitory percentage)
value_kind: inhibition at 100 µM (%)
Enter your answer as a number in %; do not include the unit.

Examples with their reported inhibition at 100 µM follow.
>>> value_observed("CC(=O)OC(CCC(C)C1CC[C@@]2(C)C3=C(CC[C@]12C)[C@@]1(C)CCC(=O)C(C)(C)[C@@H]1CC3)C(C)(C)OC(C)=O (some centres unmarked)")
24.1
>>> value_observed("CC(=O)O[C@H]1CC[C@]2(C)C3=C(CC[C@H]2C1(C)C)[C@]1(C)CCC(C(C)CCC(O)C(C)(C)O)[C@@]1(C)CC3 (some centres unmarked)")
48.8
>>> value_observed("CC(=O)O[C@H]1CC[C@@]2(C)[C@@H](CCC34OC32CC[C@]2(C)C(C(C)CCC(O)C(C)(C)O)CC[C@@]42C)C1(C)C (some centres unmarked)")
28.7

Entry under test: CC(=O)O[C@H]1CC[C@]2(C)C3CC[C@]4(C)C(C(C)CCC(O)C(C)(C)O)CC[C@@]4(C)C3CC[C@H]2C1(C)C (some centres unmarked) . Its inhibition at 100 µM was 0.16

Entry under test: CC(CCC(=O)C(C)(C)O)C1CC[C@@]2(C)C34CC[C@H]5C(C)(C)C(=O)CC[C@]5(C)C3(CC[C@]12C)O4 (some centres unmarked) . Its inhibition at 100 µM was -16

Entry under test: CC(=O)O[C@H]1CC[C@@]2(C)[C@@H](CCC34OC32CC[C@]2(C)C(C(C)CCC3OC3(C)C)CC[C@@]42C)C1(C)C (some centres unmarked) . Its inhibition at 100 µM was 21.5

Entry under test: CC(=O)O[C@H]1CC[C@]2(C)C3=C(CC[C@H]2C1(C)C)[C@]1(C)CCC(C(C)CCC2OC2(C)C)[C@@]1(C)CC3 (some centres unmarked) . Its inhibition at 100 µM was 34.4

Entry under test: CC(CCC(O)C(C)(C)O)C1CC[C@@]2(C)C34CC[C@H]5C(C)(C)[C@@H](O)CC[C@]5(C)C3(CC[C@]12C)O4 (some centres unmarked) . Its inhibition at 100 µM was 6.95
